Reference for the values: patent US20230265187A1

We begin with a simple list: items and their reported Elisa OD450.
# Target of assay: T1, his-tagged murine TIGIT (Acro Biosystems #TIT-M52E6) (murine, UniProt P86176 29-148, limits assumed)
# T1 construct: Bought protein; also called mouse his-tagged TIGIT; not shown: his tag
# T1 sequence (looked up): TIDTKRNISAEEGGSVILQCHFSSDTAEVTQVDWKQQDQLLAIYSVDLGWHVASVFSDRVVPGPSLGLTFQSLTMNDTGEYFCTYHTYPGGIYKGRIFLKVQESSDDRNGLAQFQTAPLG
# Protocol details: ELISA, coated His-TIGIT, 1 ug/ml
Write the value in OD450 as a bare number.

Past entries and their recorded results:
[
  {
    "Binder": "43645p1.D7 (scFv, V domains shown) VH: EVQLLESGGGLVQPGGSLRLSCAASGFTFSRNSMSWVRQAPGKGLEWVSTINSGSSYTYYADSVKGRFTISRDNSKNTLYLQMNSLRAEDTAVYYCAKDNCNGYHCYGMDVWGLGTTVTVSS VL: QSVLTQPPSASGTPGQRVTISCSGSTSNVGDHYVHWYQQLPGTAPKLLIYKDDQRPSGVPDRFSGSKSGTSASLAISGLQSEDEADYYCSTWDNTLNGWVFGGGTKLTVL",
    "Unit symbol": "OD450",
    "Elisa OD450": 0.32
  },
  {
    "Binder": "43586p1.2.C12 (scFv, V domains shown) VH: ESGGGLVQPGGSLRLSCAASGFTFSDYLMTWVRQAPGKGLEWVSTITWDGDRTYYADSVKGRFTISRDNSKNTLYLQMNSLRAEDTAVYYCAKHWTVFQYGMDVWGQGTTVTVSS VL: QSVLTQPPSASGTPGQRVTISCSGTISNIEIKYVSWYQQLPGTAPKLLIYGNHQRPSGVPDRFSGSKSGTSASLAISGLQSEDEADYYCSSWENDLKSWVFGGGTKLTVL",
    "Unit symbol": "OD450",
    "Elisa OD450": 2.03
  },
  {
    "Binder": "43586p2.F10 (scFv, V domains shown) VH: VESGGGLVQPGGSLRLSCAASGFTVSDHYVSWVRQAPGKGLEWVSTSSSTNWNDGRTYYADSVKGRFTISRDNSENTLYLQMNSLRAEDTAVYYCAKDQYKGNDYYYYGMDVWGQGTTVTVSS VL: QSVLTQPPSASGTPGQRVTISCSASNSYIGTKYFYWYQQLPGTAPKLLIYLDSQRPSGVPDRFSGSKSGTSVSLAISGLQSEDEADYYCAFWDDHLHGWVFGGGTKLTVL",
    "Unit symbol": "OD450",
    "Elisa OD450": 1.29
  }
]

Q: Look up Elisa OD450: 43586p2.C01 (scFv, V domains shown) VH: EVQLLESGGGLVQPGGSLRLSCAASGFTFSDYYMNWVRQAPGKGLEYVASINWNGGTTYYADSVKGRFTISRDNSKNTLYLQMNSLRAEDTAVYYCAKDQNWNFYYGMDVWGQGTTVTVSS VL: QSVLTQPPSASGTPGQRVTISCSGGSSNIGNNFVSWYQQLPGTAPKLLIYNEIKRPSGVPDRFSASKSGTSASLAISGLQSEDEADYYCASWDGSLRGWVFGGGTKLTVL
A: 0.046

Q: Look up Elisa OD450: 43586p2.G01 (scFv, V domains shown) VH: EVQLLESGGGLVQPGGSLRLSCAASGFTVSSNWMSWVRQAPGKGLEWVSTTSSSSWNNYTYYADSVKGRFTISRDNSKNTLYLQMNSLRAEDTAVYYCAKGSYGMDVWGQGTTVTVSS VL: QSVLTQPPSASGTPGQRVTISCSGSNSNIGAKYLYWYQQLPGTAPKLLIYLNDRRPSGVPDRFSGSKSGTSASLAISGLQSEDEADYYCAFWDDHLKGWVFGGGTKLTVL
A: 1.95

Q: Look up Elisa OD450: 43586p1.2.B2 (scFv, V domains shown) VH: EMQLLESGGGLVQPGGSLRLSCAASGFTFDDYVMSWVRQAPGKGLEWVSLINWNGDKTYYADSVKGRFTISRDNSKNTLYLQMNSLRAEDTAIYYCAKHWIVFQYGMDVWGQGTTVTVSS VL: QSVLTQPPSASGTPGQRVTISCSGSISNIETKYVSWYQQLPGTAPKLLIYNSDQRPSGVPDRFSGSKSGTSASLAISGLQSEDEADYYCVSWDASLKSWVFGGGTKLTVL
A: 2.01

Q: Look up Elisa OD450: 43586p1.2.A4 (scFv, V domains shown) VH: EVQLLESGGGLVQPGGSLRLSCAASGFTVSDHHMSWVRQAPGKGLEWVSGIDPGGKTYYVDSVKGRFTISRDNSKNTLYLQMNSLRAEDTAVYYCAREQYDWNDDMDVWGQGTTVTVSS VL: QSVLTQPPSASGTPGQRVTISCSGSRSNVGDHYVSWYQQFPGTAPKLLIYANYQRPSGVPDRFSGSKSGTSASLAISGLQSEDEADHYCASWDASLNVWVFGGGTKLTVL
A: 1.82

Q: Look up Elisa OD450: 43586p2.C09 (scFv, V domains shown) VH: EVQLLESGGGLVQPGGSLRLSCTASGFTFTSYAMSWVSQAPGKGLEWVAGISYDGSIKYYADSVKGRLTISRDNSKNTLYLQMNSLRAEDTAIYYCAKHLTGGTTDYYYYAMDVWGQGTTVTVSS VL: QSVLTQPPSASGTPGQRVTISCSGSTSNIGTNRYVHWYQQFPGTAPKLLIYGTDRRPSGVSDRFSGSKSGTSASLAISGLQSEDEADYYCAAWDDSLSAWVFGGGTKLTVL
A: 0.046

Q: Look up Elisa OD450: 43586p2.B05 (scFv, V domains shown) VH: EVQLLESGGGLVQPGGSLRLSCAASGFTFSDYYMNWVRQAPGKGLEYVASINWNGGTTYYADSVKGRFTISRDNSKNTLYLQMSSLRAEDTAVYYCAKDQNWNFYYGMDVWGQGTTVTVSS VL: QSVLTQPPSASGTPGQRVTISCSGGSSNIGNNFVSWYQQLPGTAPKLLIYNEIKRPSGVPDRFSASKSGTSASLAISGLQSEDEADYYCASWDGSLRGWVFGGGTKLTVL
A: 0.07

Q: Look up Elisa OD450: 43586p2.G02 (scFv, V domains shown) VH: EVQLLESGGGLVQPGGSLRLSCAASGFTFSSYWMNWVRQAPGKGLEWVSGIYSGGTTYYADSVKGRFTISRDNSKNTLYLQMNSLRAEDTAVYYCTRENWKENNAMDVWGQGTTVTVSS VL: QSVLTQPPSASGTPGQRVTISCSGVTSNIASYHVYWYQQLPGTAPKLLIYLNSQRPSGVPDRFSASKSGTSASLAISGLQSEDEADYYCATWDGSQNGWVFGGGTKLTVL
A: 1.7
